So I've got a bunch of compounds here, and I need their LD50 at 48 h values.
- Protocol Description: Acute toxicity, mouse (Table 5)
- Details: in vivo, oral, lethality within two days, read-out: LD50 per os, Mouse

>  <Compound>
CCOc1oc(-c2ccc(Cl)cc2)nc1CC(=O)OCc1cccnc1

>  <Result Value>
> 4000 mg/kg

$$$$
>  <Compound>
CCOC(=O)Cc1nc(-c2ccc(Cl)cc2)oc1OCC

>  <Result Value>
4000 mg/kg

$$$$
>  <Compound>
CCOC(=O)Cc1nc(-c2ccc(Cl)c(Cl)c2)oc1OCC

>  <Result Value>
2000 mg/kg

$$$$
>  <Compound>
CCOc1oc(-c2ccncc2)nc1CCC(=O)O

>  <Result Value>
> 2000 mg/kg

$$$$

Note: attention shifts to another entry.
The compound identified as CCOC(=O)C(C)(C)Oc1ccc(Cl)cc1 [Clofibrate, reference compound] registered its LD50 at 48 h at 1500 mg/kg

---

- Protocol Description: Acute toxicity, rat (Table 5)
- Details: in vivo, oral, lethality within two days, read-out: LD50 per os, Rat
- Procedure: The test compound was orally administered to groups each of 5 male mice and rats respectively. The LD50 was calculated from the lethal rate (50%) within two days after administration of the test compound.
Readout Type: LD50 at 48 h

Answered cases to consult:
>  <Compound>
CCOc1oc(-c2ccc(Cl)cc2)nc1CC(=O)OCc1cccnc1

>  <LD50 at 48 h>
> 4000 mg/kg

$$$$
>  <Compound>
CCOC(=O)Cc1nc(-c2ccc(Cl)c(Cl)c2)oc1OCC

>  <LD50 at 48 h>
> 4000 mg/kg

$$$$
>  <Compound>
CCOC(=O)Cc1nc(-c2ccc(Cl)cc2)oc1OCC

>  <LD50 at 48 h>
> 4000 mg/kg

$$$$
>  <Compound>
CCOC(=O)C(C)(C)Oc1ccc(Cl)cc1 [Clofibrate, reference compound]

>  <LD50 at 48 h>
2300 mg/kg

$$$$

Let us move to another entry and its LD50 at 48 h.
Kindly note the recorded LD50 at 48 h for "CCOc1oc(-c2ccncc2)nc1CCC(=O)O" , which is > 2000 mg/kg
